Recorded values, source patent US12421235B2.

Measured EC50 accompanies every entry in the list below.
Test system: HIV-1 (IIIB) in MT-4 cells
procedure.summary: HIV MT-4 antiviral assay
Format: cell-based
condition.notes: Human immunodeficiency virus 1, MT4, 120 h, 5 days, Cell Titer Glo
property.measured: EC50 (nM)

[[record]]
molecule = "C[C@H]1C=C[C@H](O)[C@H]2CN1C(=O)c1c(O)c(=O)c(C(=O)NCc3c(F)cc(F)cc3F)cn12 [Example 14]"
measured = 4.2

[[record]]
molecule = "C[C@H]1CC[C@H](O)[C@@]2(C)CN1C(=O)c1c(O)c(=O)c(C(=O)NCc3ccc(F)cc3F)cn12 [Example 43]"
measured = 1.3

[[record]]
molecule = "[2H]C([2H])([2H])O[C@H]1CC[C@H](C)N2C[C@H]1n1cc(C(=O)NCc3ccc(F)cc3F)c(=O)c(O)c1C2=O [Example 34]"
measured = 0.9

[[record]]
molecule = "CO[C@@H]1C=C[C@H](C)N2C[C@H]1n1cc(C(=O)NCc3ccc(F)c(Cl)c3F)c(=O)c(O)c1C2=O [Example 10]"
measured = 1.2


----------
procedure.summary: High throughput microsomal stability assay (human liver microsomes)
Type: in vitro ADME
condition.notes: human liver microsomes, 1 uM compound, NADPH + UDPGA cofactors, 37 C
Everything with HLM stability lower than 3 mL/min/kg is FALSE; everything else, including exactly 3 mL/min/kg, is TRUE.

[[record]]
compound_structure_string = "C[C@H]1CC[C@](C)(O)[C@H]2CN1C(=O)c1c(O)c(=O)c(C(=O)NCc3c(F)cc(F)cc3F)cn12"
category = "TRUE"

[[record]]
compound_structure_string = "CO[C@H]1CC[C@@H](C)N2C[C@H]1n1cc(C(=O)NCc3ccc(F)cc3F)c(=O)c(O)c1C2=O"
category = "TRUE"

[[record]]
compound_structure_string = "C[C@H]1C=C[C@](C)(O)[C@H]2CN1C(=O)c1c(O)c(=O)c(C(=O)NCc3c(F)cc(F)cc3F)cn12"
category = "TRUE"

[[record]]
compound_structure_string = "[2H]C([2H])([2H])[C@]1(O)C=C[C@H](C)N2C[C@H]1n1cc(C(=O)NCc3c(F)cc(F)cc3F)c(=O)c(O)c1C2=O"
category = "FALSE"

[[record]]
compound_structure_string = "C[C@H]1C=C[C@](C)(O)[C@H]2CN1C(=O)c1c(O)c(=O)c(C(=O)NCc3ccc(F)cc3F)cn12"
category = "FALSE"

[[record]]
compound_structure_string = "C[C@H]1C=C[C@H](OC(F)F)[C@H]2CN1C(=O)c1c(O)c(=O)c(C(=O)NCc3c(F)cc(F)cc3F)cn12"
category = "TRUE"


----------
Tested on: HIV-1 (IIIB) in MT-4 cells
procedure.summary: HIV MT-4 antiviral assay
Type: cell-based
condition.notes: Human immunodeficiency virus 1, MT4, 120 h, 5 days, Cell Titer Glo
Measured EC50 accompanies every entry in the list below.
property.measured: EC50 (nM)

[[record]]
molecule = "C[C@H]1CC[C@](C)(O)[C@H]2CN1C(=O)c1c(O)c(=O)c(C(=O)NCc3c(F)cc(F)cc3F)cn12 [Example 11]"
measurement_units = "nM"
measured = 1.5

[[record]]
molecule = "C[C@H]1C=C[C@H](O)[C@H]2CN1C(=O)c1c(O)c(=O)c(C(=O)NCc3ccc(F)cc3F)cn12 [Example 20]"
measurement_units = "nM"
measured = 2.8

[[record]]
molecule = "CO[C@@H]1C[C@@H](F)[C@H](C)N2C[C@H]1n1cc(C(=O)NCc3c(F)cc(F)cc3F)c(=O)c(O)c1C2=O (single isomer, unassigned) [Example 38]"
measurement_units = "nM"
measured = 1.8

[[record]]
molecule = "CO[C@@H]1CC[C@H](C)N2C[C@H]1n1cc(C(=O)NCc3c(F)cc(F)cc3F)c(=O)c(O)c1C2=O [Example 6]"
measurement_units = "nM"
measured = 1.4

[[record]]
molecule = "C[C@H]1C=C[C@](C)(O)[C@H]2CN1C(=O)c1c(O)c(=O)c(C(=O)NCc3ccc(F)cc3F)cn12 [Example 17]"
measurement_units = "nM"
measured = 3

[[record]]
molecule = "CO[C@H]1CC[C@H](C)N2C[C@H]1n1cc(C(=O)NCc3c(F)cc(F)cc3F)c(=O)c(O)c1C2=O [Example 1]"
measurement_units = "nM"
measured = 1.5

